B1: ESRRA (parent)
chain: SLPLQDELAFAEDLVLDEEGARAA

Variants of: B1
Test: protein stability index of a GFP-peptide fusion (GPS, HEK-293T) (PSI 1-6); higher = more stable;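 also: lentivirally expressed fusions sorted by FACS into six bins by GFP to DsRed ratio, PSI derived from sequencing read proportions per bin multiplied by bin number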
Conditions: c terminus: a fixed tail appended
Label 0.0 if protein stability index falls below 3; label 1.0 in every other case.

residue-change: A11G
cat: 1.0
//
residue-change: E19A
cat: 0.0
//
residue-change: A23K
cat: 0.0
//
residue-change: A9V
cat: 1.0
//
residue-change: F10R
cat: 1.0
//
residue-change: E7W
cat: 1.0
//
residue-change: L8N
cat: 1.0
//
residue-change: A23F
cat: 0.0
//
residue-change: L14F
cat: 1.0
//
residue-change: Q5F
cat: 1.0
//
residue-change: A11P
cat: 1.0
//
residue-change: D6F
cat: 0.0
//
residue-change: S1F
cat: 0.0
//
residue-change: L8F
cat: 1.0
//
residue-change: S1W
cat: 0.0
//
residue-change: D17L
cat: 0.0
//
residue-change: E19K
cat: 0.0
//
residue-change: E7D
cat: 1.0
//
residue-change: A24P
cat: 1.0
//
residue-change: F10H
cat: 1.0
//
residue-change: D17K
cat: 0.0
//
residue-change: F10A
cat: 1.0
//
residue-change: E7F
cat: 1.0
//
residue-change: E18A
cat: 0.0
//
residue-change: P3E
cat: 1.0
//
residue-change: A24N
cat: 0.0
//
residue-change: L14K
cat: 1.0
//
residue-change: G20R
cat: 1.0
//
residue-change: D13V
cat: 0.0
//
residue-change: P3R
cat: 1.0
//
residue-change: D13N
cat: 0.0
//
residue-change: L8S
cat: 1.0
//
residue-change: G20P
cat: 1.0
//
residue-change: D13T
cat: 1.0
